Origin of the recorded values: patent US20110015119A1

Collected MIC values appear next to each entry.
System: Streptococcus pyogenes 712
Assay: MIC by broth microdilution, SPY 712
Format: cell-based
Conditions: Streptococcus pyogenes 712; class symbols; read-out: MIC S PYO 712

Examples with answers:
>  <Compound>
CCCCCOc1ccc(S(=O)(=O)NCCCCCCNCc2c(O)cc3c(c2O)-c2cc(ccc2O)[C@H]2NC(=O)[C@@H]4NC(=O)[C@H](CC(N)=O)NC(=O)[C@H](NC(=O)[C@@H](CC(C)C)NC)[C@H](O)c5ccc(c(Cl)c5)Oc5cc4cc(c5O[C@@H]4O[C@H](CO)[C@@H](O)[C@H](O)[C@H]4O[C@H]4C[C@](C)(NC(=O)CN)[C@H](O)[C@H](C)O4)Oc4ccc(cc4Cl)[C@@H](O)[C@H](NC2=O)C(=O)N[C@@H]3C(=O)O)cc1 (atropisomer, axis not shown) [Compound 345]

>  <MIC>
0.01 to 0.5 µg/mL

$$$$
>  <Compound>
CCCCCCc1ccc(S(=O)(=O)NCCCCCCNCc2c(O)cc3c(c2O)-c2cc(ccc2O)[C@H]2NC(=O)[C@@H]4NC(=O)[C@H](CC(N)=O)NC(=O)[C@H](NC(=O)[C@@H](CC(C)C)NC)[C@H](O)c5ccc(c(Cl)c5)Oc5cc4cc(c5O[C@@H]4O[C@H](CO)[C@@H](O)[C@H](O)[C@H]4O[C@H]4C[C@](C)(NC(=O)NC5CC5)[C@H](O)[C@H](C)O4)Oc4ccc(cc4Cl)[C@@H](O)[C@H](NC2=O)C(=O)N[C@@H]3C(=O)O)cc1 (atropisomer, axis not shown) [Compound 365]

>  <MIC>
0.01 to 0.5 µg/mL

$$$$

# CCCCCCc1ccc(S(=O)(=O)NCCOCCNCc2c(O)cc3c(c2O)-c2cc(ccc2O)[C@H]2NC(=O)[C@@H]4NC(=O)[C@H](CC(N)=O)NC(=O)[C@H](NC(=O)[C@@H](CC(C)C)NC)[C@H](O)c5ccc(c(Cl)c5)Oc5cc4cc(c5O[C@@H]4O[C@H](CO)[C@@H](O)[C@H](O)[C@H]4O[C@H]4C[C@]5(C)NC(=O)O[C@@H]5[C@H](C)O4)Oc4ccc(cc4Cl)[C@@H](O)[C@H](NC2=O)C(=O)N[C@@H]3C(=O)O)cc1 (atropisomer, axis not shown) [Compound 308] with Streptococcus pyogenes 712: MIC is 0.01 to 0.5 µg/mL

Considering CCCCCCCCc1ccc(S(=O)(=O)NCCCCCCNCc2c(O)cc3c(c2O)-c2cc(ccc2O)[C@H]2NC(=O)[C@@H]4NC(=O)[C@H](CC(N)=O)NC(=O)[C@H](NC(=O)[C@@H](CC(C)C)NC)[C@H](O)c5ccc(c(Cl)c5)Oc5cc4cc(c5O[C@@H]4O[C@H](CO)[C@@H](O)[C@H](O)[C@H]4O[C@H]4C[C@](C)(NC(=O)NC5CC5)[C@H](O)[C@H](C)O4)Oc4ccc(cc4Cl)[C@@H](O)[C@H](NC2=O)C(=O)N[C@@H]3C(=O)O)cc1 (atropisomer, axis not shown) [Compound 366] , its MIC with Streptococcus pyogenes 712 was recorded as 0.01 to 0.5 µg/mL

---

System: Staphylococcus aureus 757 (MRSA)
Experiment: MIC by broth microdilution, SA 757
Format: cell-based
Conditions: Staphylococcus aureus, MRSA, read-out: MIC SA 757
Assay Endpoint: MIC

Below: 3 compounds and their reported MIC.
>  <Compound>
CCNCCOc1ccc(CCNC(=O)Oc2cc(O)c3c(c2)[C@@H](C(=O)NC2C4CC5CC(C4)CC2C5)NC(=O)[C@H]2NC(=O)[C@H](NC(=O)[C@@H]4NC(=O)[C@H](CC(N)=O)NC(=O)[C@H](NC(=O)[C@@H](CC(C)C)NC)[C@H](O)c5ccc(c(Cl)c5)Oc5cc4cc(c5O[C@@H]4O[C@H](CO)[C@@H](O)[C@H](O)[C@H]4O[C@H]4C[C@](C)(N)[C@H](O)[C@H](C)O4)Oc4ccc(cc4Cl)[C@H]2O)c2ccc(O)c-3c2)cc1 (stereo partly shown) [Compound 337]

>  <Assay Endpoint>
MIC

>  <Observed Result>
0.01 to 0.5 µg/mL

$$$$
>  <Compound>
CCOc1ccc(NC(=O)Oc2cc(O)c3c(c2)[C@@H](C(=O)NC2C4CC5CC(C4)CC2C5)NC(=O)[C@H]2NC(=O)[C@H](NC(=O)[C@@H]4NC(=O)[C@H](CC(N)=O)NC(=O)[C@H](NC(=O)[C@@H](CC(C)C)NC)[C@H](O)c5ccc(c(Cl)c5)Oc5cc4cc(c5O[C@@H]4O[C@H](CO)[C@@H](O)[C@H](O)[C@H]4O[C@H]4C[C@](C)(N)[C@H](O)[C@H](C)O4)Oc4ccc(cc4Cl)[C@H]2O)c2ccc(O)c-3c2)cc1 (stereo partly shown) [Compound 330]

>  <Assay Endpoint>
MIC

>  <Observed Result>
0.5 to 1 µg/mL

$$$$
>  <Compound>
CNCCOc1ccc(CCNC(=O)Oc2cc(O)c3c(c2)[C@@H](C(=O)NC2C4CC5CC(C4)CC2C5)NC(=O)[C@H]2NC(=O)[C@H](NC(=O)[C@@H]4NC(=O)[C@H](CC(N)=O)NC(=O)[C@H](NC(=O)[C@@H](CC(C)C)NC)[C@H](O)c5ccc(c(Cl)c5)Oc5cc4cc(c5O[C@@H]4O[C@H](CO)[C@@H](O)[C@H](O)[C@H]4O[C@H]4C[C@](C)(N)[C@H](O)[C@H](C)O4)Oc4ccc(cc4Cl)[C@H]2O)c2ccc(O)c-3c2)cc1 (stereo partly shown) [Compound 335]

>  <Assay Endpoint>
MIC

>  <Observed Result>
0.01 to 0.5 µg/mL

$$$$

Then this compound:
response.value for CCCCCCc1ccc(NC(=O)NCCCCCCNC(=O)Oc2cc(O)c3c(c2)[C@@H](C(=O)O)NC(=O)[C@H]2NC(=O)[C@H](NC(=O)[C@@H]4NC(=O)[C@H](CC(N)=O)NC(=O)[C@H](NC(=O)[C@@H](CC(C)C)NC)[C@H](O)c5ccc(c(Cl)c5)Oc5cc4cc(c5O[C@@H]4O[C@H](CO)[C@@H](O)[C@H](O)[C@H]4O[C@H]4C[C@](C)(N)[C@H](O)[C@H](C)O4)Oc4ccc(cc4Cl)[C@H]2O)c2ccc(O)c-3c2)cc1 (atropisomer, axis not shown) [Compound 354] (field: MIC) = 0.01 to 0.5 µg/mL
